# ASSAY PROCEDURE: Plasma pharmacokinetics (LC-MS/MS)
# Assay type: in vivo, human
# COND: human, plasma, oral, 4 mg, cycle 2, day 1; QD 4 mg; read-out: AUC0–24h [%CV]

{"MOLECULE": "CC(C)n1nc(-c2ccc3oc(N)nc3c2)c2c(N)ncnc21 [Sapanisertib]", "AUC(0-t) / ng·h/mL": 281}

* * *

# ASSAY PROCEDURE: Plasma pharmacokinetics (LC-MS/MS)
# Assay type: in vivo, human
# COND: human, plasma, oral, 4 mg, cycle 2, day 1; QD 4 mg; read-out: AUC0–last [%CV]

{"CHEMICAL STRING": "CC(C)n1nc(-c2ccc3oc(N)nc3c2)c2c(N)ncnc21", "SCALE UNIT": "ng·h/mL", "AUC(0-t)": 61.9}

* * *

# ASSAY PROCEDURE: Plasma pharmacokinetics (LC-MS/MS)
# Type: in vivo, human
# COND: human, plasma, oral, 30 mg, cycle 2, day 1; QW 30 mg; read-out: Tmax, median

{"CHEMICAL STRING": "CC(C)n1nc(-c2ccc3oc(N)nc3c2)c2c(N)ncnc21", "SCALE UNIT": "h", "Tmax": 4}

* * *

# ASSAY PROCEDURE: Plasma pharmacokinetics (LC-MS/MS)
# Assay type: in vivo, human
# COND: human, plasma, oral, 4 mg, cycle 2, day 1; QD 4 mg

{"MOLECULE": "CC(C)n1nc(-c2ccc3oc(N)nc3c2)c2c(N)ncnc21 [Sapanisertib]", "Cmax (ng/mL)": 20.3}

* * *

# ASSAY PROCEDURE: Plasma pharmacokinetics (LC-MS/MS)
# Format: in vivo, human
# COND: human, plasma, oral, range, 2–40 mg dose range; read-out: Mean plasma half-life

{"CHEMICAL STRING": "CC(C)n1nc(-c2ccc3oc(N)nc3c2)c2c(N)ncnc21", "half-life": "5.9 to 9.4 h"}

* * *

# ASSAY PROCEDURE: Plasma pharmacokinetics (LC-MS/MS)
# Format: in vivo, human
# COND: human, plasma, oral, 40 mg, cycle 1, day 1; 40 mg

{"COMPOUND": "CC(C)n1nc(-c2ccc3oc(N)nc3c2)c2c(N)ncnc21 [Sapanisertib]", "Cmax (ng/mL)": 172}

* * *

# ASSAY PROCEDURE: Plasma pharmacokinetics (LC-MS/MS)
# Assay type: in vivo, human
# COND: human, plasma, oral, 16 mg, cycle 1, day 1; 16 mg; read-out: AUC0–24h [%CV]
RESULT TYPE: AUC(0-t) (µg·h/mL)

{"CHEMICAL STRING": "CC(C)n1nc(-c2ccc3oc(N)nc3c2)c2c(N)ncnc21", "RESULT TYPE": "AUC(0-t)", "SCALE UNIT": "µg·h/mL", "TEST RESULT": 0.689}

* * *

# ASSAY PROCEDURE: Plasma pharmacokinetics (LC-MS/MS)
# Type: in vivo, human
# COND: human, plasma, oral, 40 mg, cycle 1, day 1; 40 mg; read-out: AUC0–24h [%CV]

{"CHEMICAL STRING": "CC(C)n1nc(-c2ccc3oc(N)nc3c2)c2c(N)ncnc21", "AUC(0-t) / ng·h/mL": 1640}

* * *

# ASSAY PROCEDURE: Plasma pharmacokinetics (LC-MS/MS)
# Format: in vivo, human
# COND: human, plasma, oral, 10 mg, cycle 1, day 1; 10 mg; read-out: AUC0–last [%CV]
RESULT TYPE: AUC(0-t) (ng·h/mL)

{"COMPOUND": "CC(C)n1nc(-c2ccc3oc(N)nc3c2)c2c(N)ncnc21 [Sapanisertib]", "RESULT TYPE": "AUC(0-t)", "TEST RESULT": 153}

The measurements presented in this section are drawn from paper PMC7686313.
